Assay: qHTS assay to identify small molecule HDAC inhibitors (AID 1259364);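 note: wild-type HCT-116 cells with endogenous class I/II HDAC activity; top concentration of the series differs between compounds; % is set by controls: 0 for no effect and ±100 for the full control effect; nearly all actives have a fitted effect of over 45% in size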
Settings: HCT-116 HDAC-Glo I/II luminescence, 2 h; series mostly up to 92.4 µM
Inconclusive results are not listed. Calls of active or inactive are those of the source. Calls come from the whole dose curve; as a rule, active = well fitted inhibition curve with a large enough effect in the repeat runs; inconclusive = weak or mixed curves; inactive = flat fitted curve, though single readings scatter.
ASSAY_ENDPOINT: activity change, negative = inhibition

1) COc1ccc(CN2CCNCC2)c(OC)c1OC: inactive
2) C=CC=O: inactive
3) CCOC(=O)NC(C)(C)Cc1ccc(Cl)cc1: inactive

---

Experiment: qHTS assay to identify small molecule agonists of the hypoxia (HIF-1) signaling pathway (AID 1224846); note: % is set by controls: 0 for no effect and ±100 for the full control effect
Settings: HRE-bla ME-180 cells, beta-lactamase ratio, 17 h; series mostly up to 76.8 µM
Procedure: U.S. Tox21 Program National Center for Advancing Translational Sciences [NCATS] NIH Chemical Genomics Center [NCGC] U.S. Environmental Protection Agency [EPA] National Institutes of Environmental Health Sciences [NIEHS] National Toxicology Program [NTP] U.S. Food and Drug Administration [FDA] […] Tox21 10K library compounds were measured for their ability to induce the reporter gene activity. […]
Inconclusive results are not listed. Calls of active or inactive are those of the source. Calls come from the whole dose curve; as a rule, active = well fitted activation curve with a large enough effect in the signal ratio in the repeat runs (not every such curve was filed as active); inconclusive = weak or mixed curves; inactive = flat fitted curve, though single readings scatter; the % refers to the signal ratio.
ASSAY_ENDPOINT: activation

1. CC(=O)CN(CC(C)=O)N=O: inactive
2. CCC(C)C(C)(COC(N)=O)COC(N)=O (stereo not drawn): inactive
3. C=CC=O: inactive
4. O=C(O)c1c(Cl)ccc2cc(Cl)cnc12: inactive
5. CCCC(C)(COC(N)=O)COC(N)=O: inactive

I need activation for every entry listed below, if you could help.
1. CC(O)CCl (stereo not drawn)
2. NC(=O)CS(=O)C(c1ccccc1)c1ccccc1 (stereo not drawn)
3. CCc1cc(OC)c(C[C@H](C)N)cc1OC

["inactive", "inactive", "inactive"]

Each compound below has a recorded value; state its activation.
1. O=C(Cl)OCc1ccccc1
2. CC(Cc1ccccc1)NCCCCl (stereo not drawn)
3. CC(C)c1ccc(O)cc1

inactive
inactive
inactive

For every item in the list below, what is its measured activation?
1. CN1COCN(Cc2cnc(Cl)s2)/C1=N\[N+](=O)[O-]
2. Nc1c(Cl)c(F)nc(OCC(=O)O)c1Cl
3. CC1NCCOC1c1ccccc1 (stereo not drawn)
4. CCN(CCO)CCn1c(Cc2ccccc2)nc2c1c(=O)n(C)c(=O)n2C
5. O=c1[nH]c2ccccc2n1C1CCNCC1

1. inactive
2. inactive
3. inactive
4. inactive
5. inactive

Lab note: each compound below needs its activation filled in.
1. CC(C)(N)Cc1ccc(Cl)cc1
2. CN(CCO)CCO

1. inactive
2. inactive

---

Assay: qHTS assay to identify small molecule antagonists of the androgen receptor (AR) signaling pathway using the MDA cell line - cell viability counter screen (AID 743041; note: % is set by controls: 0 for no effect and ±100 for the full control effect; nearly all actives have a fitted effect of over 45% in size)
Conditions: MDA-kb2 viability, CellTiter-Fluor, 16 h, cells co-treated with R1881 androgen agonist; series mostly up to 70.3 µM
Inconclusive results are not listed. The source made the active and inactive calls. Calls come from the whole dose curve; as a rule, active = well fitted cell-killing curve with a large enough effect in the repeat runs; inconclusive = weak or mixed curves, or effect the other way; inactive = flat fitted curve, though single readings scatter.
ASSAY_ENDPOINT: outcome

Check out these entries, answers already filled in.
1. O=CCCl: inactive
2. CCN(CCO)CCO: inactive
3. CCC(=O)c1ccc(Cl)cc1: inactive
4. C(COCC1CO1)OCC1CO1 (stereo unspecified): inactive
5. C[C@@H](N)[C@@H](O)c1ccccc1: inactive

Look at this compound and give its reported outcome. Cc1cccc2sc3nncn3c12 inactive

---

Molecular target: Estrogen receptor beta (Homo sapiens) (UniProt Q92731)
Sequence (Q92731 whole entry, looked up): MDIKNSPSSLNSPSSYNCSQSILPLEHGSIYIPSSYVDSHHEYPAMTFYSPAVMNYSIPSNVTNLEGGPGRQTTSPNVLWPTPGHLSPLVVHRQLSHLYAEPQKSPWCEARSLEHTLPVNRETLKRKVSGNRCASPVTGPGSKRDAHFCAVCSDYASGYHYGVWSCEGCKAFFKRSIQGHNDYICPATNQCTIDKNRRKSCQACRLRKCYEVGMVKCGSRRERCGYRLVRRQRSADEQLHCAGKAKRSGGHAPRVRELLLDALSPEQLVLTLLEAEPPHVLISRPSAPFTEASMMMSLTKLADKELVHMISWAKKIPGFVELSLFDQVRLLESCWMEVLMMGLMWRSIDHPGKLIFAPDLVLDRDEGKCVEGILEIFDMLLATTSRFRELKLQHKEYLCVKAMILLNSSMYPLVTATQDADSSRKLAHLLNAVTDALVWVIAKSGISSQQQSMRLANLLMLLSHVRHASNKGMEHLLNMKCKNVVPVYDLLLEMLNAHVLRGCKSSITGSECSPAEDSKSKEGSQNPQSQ
Assay: qHTS assay to identify small molecule agonists of the estrogen receptor beta (ER-beta) signaling pathway (AID 1259377); note: % is set by controls: 0 for no effect and ±100 for the full control effect
Conditions: ER-beta-UAS-bla HEK293T, beta-lactamase FRET ratio, 16 h; series mostly up to 92.4 µM
Inconclusive results are not listed. Calls of active or inactive are those of the source. Calls come from the whole dose curve; as a rule, active = well fitted activation curve with a large enough effect in the signal ratio in the repeat runs (not every such curve was filed as active); inconclusive = weak or mixed curves, or effect the other way; inactive = flat fitted curve, though single readings scatter; the % refers to the signal ratio.
Please state which outcome applies, choosing from active, inactive

Some entries whose results are on file:
1. CC(Cc1ccccc1)NCCCCl (stereo not drawn): inactive
2. Cl/C=C/CCl: inactive

// outcome(item) with item = Cc1ccc(S(=O)(=O)N[C@@H](CCCCN)C(=O)CCl)cc1 inactive

Test call, this molecule: COC(=O)c1ccc(CBr)cc1 inactive

In this assay, the call recorded for CNC(=O)NC(O)C(Cl)(Cl)Cl (stereo not drawn) was what? inactive

---

Biological target: Nuclear receptor subfamily 1 group I member 3 (Homo sapiens)
Test: qHTS assay to identify small molecule agonists of the constitutive androstane receptor (CAR) signaling pathway (AID 1224839); note: nearly all actives have a fitted effect of over 15% in size;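 for activation: HepG2 cells stably carrying human CAR and a CYP2B6 luciferase reporter; % is set by controls: 0 for no effect and ±100 for the full control effect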
Settings: HepG2 hCAR CYP2B6-luciferase, agonist mode, 24 h; series mostly up to 92.4 µM
Inconclusive results are not listed. Calls of active or inactive are those of the source. Calls follow the shape of the dose curve; as a rule, active = well fitted activation curve with a large enough effect in the repeat runs; inconclusive = weak or mixed curves; inactive = no such curve, though single readings can be large or run the other way.
Choose the fitting class; nothing outside 1 = active, -1 = inactive is accepted.

Use these answered entries as a reference point.
1. NNC(N)=O: -1
2. BrCc1ccc(Br)cc1: -1
3. NC(=O)CS(=O)C(c1ccccc1)c1ccccc1 (stereo unspecified): -1
4. Oc1ccc(Cc2ccc(O)cc2)cc1: 1
5. COc1ccccc1OC: -1

Tell me the recorded outcome of this test for CON(C)C(=O)Nc1ccc(Br)c(Cl)c1 . 1

---

Assay: qHTS assay to identify small molecule agonists of the AP-1 signaling pathway (AID 1159526); note: % is set by controls: 0 for no effect and ±100 for the full control effect
Settings: ME-180 (cervical carcinoma) AP-1-bla reporter, beta-lactamase FRET ratio, 5 h; series mostly up to 76.8 µM
Records with an inconclusive call do not appear. Activity calls are given as the source filed them. Calls follow the shape of the full dose curve.
ASSAY_ENDPOINT: activation

1) Cc1ccc2c(c1)C1CN(C)CCC1N2 (stereo unspecified): 8.05% [at 15.8 µM] (inactive)
2) CCOP(=O)(CN(CCO)CCO)OCC: inactive
3) Clc1cc2c(cc1Cl)Oc1cc(Cl)c(Cl)cc1O2: 0.434% [at 0.29 µM] (inactive)
4) COc1ccc(CN2CCNCC2)c(OC)c1OC: inactive
5) O=P(O)(O)c1ccccc1: inactive

activation for CC[C@@H](CO)NC(=O)[C@@H]1C=C2c3cccc4[nH]cc(c34)C[C@H]2N(C)C1 ? inactive

---

Kindly supply the reported max response values for the records listed here.
Assay: qHTS RealTime-Glo MT Cell Viability Assay in HEK293 cells - 40 hour (AID 1224874); note: % is set by controls: 0 for no effect and ±100 for the full control effect; nearly all actives have a fitted effect of over 50% in size
Details: RealTime-Glo luminescence; hits give low values
Results filed as inconclusive are left out. Calls of active or inactive are those of the source. Calls follow the shape of the dose curve; as a rule, active = well fitted cell-killing curve with a large enough effect in the repeat runs; inconclusive = weak or mixed curves, or effect the other way; inactive = flat fitted curve, though single readings scatter.

Reference set, count: 2
1. COc1cccc([C@@]2(O)CCCC[C@@H]2CN(C)C)c1: 0.459% (inactive)
2. CCc1ccc(C2CCNCC2)cc1: 7.03% (inactive)

Give me max response for each of these compounds, listed below.
1. COc1cc(CCN)cc(OC)c1OC
2. CNC(=O)Oc1cc(C)c(N(C)C)c(C)c1
3. CC(Cl)(Cl)Cl
4. NC(=O)CS(=O)C(c1ccccc1)c1ccccc1 (centres undefined)
5. CCOc1cc(OP(=S)(OC)OC)nc(CC)n1
6. O=C(Cl)c1ccccc1
7. COc1ccc(C=O)cc1O
8. CCC1(c2cccc(O)c2)CCCCN(C)C1 (centres undefined)

1. -4.29% (inactive)
2. -10.9% (inactive)
3. -1.28% (inactive)
4. -4.1% (inactive)
5. 6.75% (inactive)
6. -3.78% (inactive)
7. 0.952% (inactive)
8. 3.71% (inactive)

---

Target: Cytochrome P450 1A2 (Homo sapiens)
Assay: Cytochrome P450 Family 1 Subfamily A Member 2 (CYP1A2) small molecule antagonists: luciferase reporter qHTS assay (AID 1671199); note: nearly all actives have a fitted effect of over 50% in size
Conditions: P450-Glo CYP1A2 enzyme, luciferin luminescence, 1 h; series mostly up to 115 µM
Inconclusive results are not listed. Active and inactive are the calls of the source. Calls come from the whole dose curve; as a rule, active = well fitted inhibition curve with a large enough effect in the repeat runs; inconclusive = weak or mixed curves; inactive = no such curve, though single readings can be large or run the other way.
Your answer must be one of the following: active, inactive

A selection of reference data follows.
1. O=C1CCCCC1Cl (centres undefined): active
2. N#CN: inactive
3. CC(C)NCC(O)c1ccc([N+](=O)[O-])cc1 (centres undefined): inactive
4. C=C(C)[C@H]1CN[C@H](C(=O)O)[C@H]1CC(=O)O: inactive
5. CC1=C2[C@H]3OC(=O)[C@@H](C)[C@@H]3CC[C@@]2(C)C=CC1=O: inactive
6. CC(C)(N)Cc1ccc(Cl)cc1: active
7. COC1=CC(=O)O[C@@H](/C=C/c2ccccc2)C1: active
8. CCCN1CCC[C@@H]2Cc3[nH]ncc3C[C@H]21: inactive

Status in this test for CNC(=O)Oc1cc(C)c(N(C)C)c(C)c1 ? active

What did the test return for C#CCOC(=O)/C=C(C)/C=C/CC(C)CCCC(C)C (centres undefined) ? active

For this compound, state the assay outcome: CC(C)(O)C(Cl)(Cl)Cl inactive

Which outcome was entered for the compound ClCCCCl in this test? active

// return assay outcome for COc1cccc(C=O)c1 active

---

Assay: qHTS assay for identifying genotoxic compounds that show differential cytotoxicity against isogenic chicken DT40 cell lines with known DNA damage response pathways - Rev3 mutant cell line (AID 743014); note: nearly all actives have a fitted effect of over 55% in size
Conditions: chicken DT40 Rev3-/- viability, CellTiter-Glo, 40 h; series mostly up to 68.4 µM
Inconclusive results are not listed. Activity calls are given as the source filed them. The call rests on the fitted dose curve; in most records, active means well fitted cell-killing curve with a large enough effect in the repeat runs; inconclusive means weak or mixed curves, or effect the other way; inactive means no such curve, though single readings can be large or run the other way.
Returns: one label drawn from T (active), F (inactive)

Field: example entries. Status: answers known.
1) CC(C)(C)NC[C@H](O)c1ccc(O)cc1Cl: F
2) O=C(NC(O)C(Cl)(Cl)Cl)NC(O)C(Cl)(Cl)Cl (centres undefined): F
3) ClC1=C(Cl)C2(Cl)C(CBr)CC1(Cl)C2(Cl)Cl (centres undefined): T

For O=[N+]([O-])c1cccc(CCl)c1 , which call appears in the assay record? F

Outcome? CCOC(=O)CCl F

# lookup: test call for CC(Cc1ccccc1)NCCn1cnc2c1c(=O)n(C)c(=O)n2C (centres undefined) F

Cited source: PubChem BioAssay (Tox21)
